Listing: pIC50 of selected compounds
molecular target: Sodium channel protein type 1 subunit alpha (Homo sapiens); assay: Inhibition of 1 Hz stimulated Nav1.1 (unknown origin) by manual patch clamp method
pIC50: −log10 of the molar value.

• FC(F)(F)Oc1ccc(-c2ccc3nnc(C(F)(F)F)n3c2)cc1 = < 5.00

I would be grateful if you could share the reported pIC50 for Cc1noc(Cn2nc3ccc(-c4ccc(OC(F)(F)F)cc4)cn3c2=O)n1 .
< 5.00

---

target: Sodium channel protein type 1 subunit alpha (Homo sapiens, UniProt P35498); assay: Inhibition of 10 Hz stimulated Nav1.1 (unknown origin) assessed as inhibition of peak sodium current at 10 uM by automated patch clamp method relative to control
OUTCOME MEASURE: inhibition

Use the examples below as a reference point.
* O=c1n(Cc2noc(CO)n2)nc2ccc(-c3ccc(Oc4ccc(F)cc4)cc3)cn12 | 56%
* O=c1n(Cc2nnc(C3CC3)o2)nc2ccc(-c3ccc(Oc4ccc(F)cc4)cc3)cn12 | 56%

I would be grateful if you could share the reported inhibition for Cc1nc(Cn2nc3ccc(-c4ccc(Oc5ccc(F)cc5)cc4)cn3c2=O)no1 .
65%

I would be grateful if you could share the reported inhibition for Cc1nc(Cn2nc3ccc(-c4ccc(Oc5ccc(Cl)cc5)cc4)cn3c2=O)no1 .
79%

I would be grateful if you could share the reported inhibition for Cc1coc(Cn2nc3ccc(-c4ccc(OC(F)(F)F)cc4)cn3c2=O)n1 .
28%

---

molecular target: Sodium channel protein type 5 subunit alpha (Homo sapiens); assay: Inhibition of Nav1.5 (unknown origin) assessed as inhibition of late sodium current by manual patch clamp method
Sequence (Q14524 whole entry): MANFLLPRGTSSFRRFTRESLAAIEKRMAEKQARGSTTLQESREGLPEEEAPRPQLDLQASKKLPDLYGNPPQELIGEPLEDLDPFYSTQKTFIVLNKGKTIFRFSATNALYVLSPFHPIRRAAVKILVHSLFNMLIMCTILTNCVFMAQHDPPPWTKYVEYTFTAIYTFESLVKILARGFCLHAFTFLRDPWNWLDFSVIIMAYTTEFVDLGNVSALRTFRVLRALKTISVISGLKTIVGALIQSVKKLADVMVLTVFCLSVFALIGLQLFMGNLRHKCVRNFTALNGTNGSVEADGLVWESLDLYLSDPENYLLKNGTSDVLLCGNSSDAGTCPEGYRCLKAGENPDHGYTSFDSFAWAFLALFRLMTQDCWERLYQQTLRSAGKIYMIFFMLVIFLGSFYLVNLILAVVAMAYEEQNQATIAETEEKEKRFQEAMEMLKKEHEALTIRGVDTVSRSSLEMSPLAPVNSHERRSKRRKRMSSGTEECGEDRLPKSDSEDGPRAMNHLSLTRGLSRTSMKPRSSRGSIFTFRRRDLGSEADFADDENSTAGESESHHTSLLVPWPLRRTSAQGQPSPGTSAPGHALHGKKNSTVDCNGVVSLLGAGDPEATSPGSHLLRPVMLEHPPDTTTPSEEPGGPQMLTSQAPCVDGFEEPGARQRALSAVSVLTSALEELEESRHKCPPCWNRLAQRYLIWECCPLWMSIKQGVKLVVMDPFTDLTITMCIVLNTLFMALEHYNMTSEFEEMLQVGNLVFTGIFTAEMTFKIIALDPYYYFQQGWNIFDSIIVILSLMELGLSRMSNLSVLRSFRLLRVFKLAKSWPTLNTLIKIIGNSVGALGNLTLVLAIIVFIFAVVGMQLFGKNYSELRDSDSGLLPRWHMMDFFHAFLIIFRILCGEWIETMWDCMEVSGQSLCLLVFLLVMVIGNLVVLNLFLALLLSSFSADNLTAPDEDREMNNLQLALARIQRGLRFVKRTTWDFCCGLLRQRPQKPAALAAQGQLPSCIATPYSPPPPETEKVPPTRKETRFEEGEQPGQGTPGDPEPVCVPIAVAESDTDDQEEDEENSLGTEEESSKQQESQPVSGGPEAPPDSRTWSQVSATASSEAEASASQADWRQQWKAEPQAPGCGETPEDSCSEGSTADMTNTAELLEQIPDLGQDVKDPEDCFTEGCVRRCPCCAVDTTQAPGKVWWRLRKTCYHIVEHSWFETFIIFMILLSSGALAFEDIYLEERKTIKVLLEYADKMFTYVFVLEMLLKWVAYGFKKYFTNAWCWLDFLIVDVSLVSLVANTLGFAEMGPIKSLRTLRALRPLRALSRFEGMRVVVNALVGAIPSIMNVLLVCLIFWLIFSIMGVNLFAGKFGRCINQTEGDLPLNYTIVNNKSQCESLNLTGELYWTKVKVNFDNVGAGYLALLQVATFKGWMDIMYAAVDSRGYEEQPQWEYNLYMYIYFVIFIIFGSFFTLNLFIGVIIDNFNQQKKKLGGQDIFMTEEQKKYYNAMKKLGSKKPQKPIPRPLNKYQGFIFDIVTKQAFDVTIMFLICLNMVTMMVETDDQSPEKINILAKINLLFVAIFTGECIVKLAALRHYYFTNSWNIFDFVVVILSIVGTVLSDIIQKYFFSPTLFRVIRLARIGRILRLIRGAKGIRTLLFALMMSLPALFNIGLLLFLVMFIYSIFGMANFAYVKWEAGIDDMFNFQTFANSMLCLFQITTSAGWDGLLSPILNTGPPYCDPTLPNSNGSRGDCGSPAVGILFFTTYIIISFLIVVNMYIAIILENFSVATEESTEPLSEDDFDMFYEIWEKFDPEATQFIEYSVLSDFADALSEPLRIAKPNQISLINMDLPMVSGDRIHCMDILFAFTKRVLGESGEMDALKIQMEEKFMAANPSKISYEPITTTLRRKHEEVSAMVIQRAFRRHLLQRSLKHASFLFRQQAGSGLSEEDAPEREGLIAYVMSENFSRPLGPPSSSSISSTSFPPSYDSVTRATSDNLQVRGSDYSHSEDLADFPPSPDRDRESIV
OUTCOME MEASURE: IC50 (nM)
Number in nM, nothing else.

I would be grateful if you could share the reported IC50 for Cc1noc(Cn2nc3ccc(-c4ccc(OC(F)(F)F)cc4)cn3c2=O)n1 .
1330

---

assay: Half life in human microsomes; assay type: ADME, Microsome
Listing: half-life of selected molecules
Number in h, nothing else.

Use the examples below as a reference point.
- Cc1nc(Cn2nc3ccc(-c4ccc(Oc5ccc(Cl)cc5)cc4)cn3c2=O)no1: 6.58
- Cc1nc(Cn2nc3ccc(-c4ccc(OC(F)(F)F)cc4)cn3c2=O)no1: 6.58
- Cc1noc(Cn2nc3ccc(-c4ccc(Oc5ccc(F)cc5)cc4)cn3c2=O)n1: 2.12

I would be grateful if you could share the reported half-life for O=c1[nH]nc2ccc(-c3ccc(OC(F)(F)F)cc3)cn12 .
6.5

I would be grateful if you could share the reported half-life for Cc1coc(Cn2nc3ccc(-c4ccc(OC(F)(F)F)cc4)cn3c2=O)n1 .
2.4

I would be grateful if you could share the reported half-life for Cc1noc(Cn2nc3ccc(-c4ccc(OC(F)(F)F)cc4)cn3c2=O)n1 .
5.13

I would be grateful if you could share the reported half-life for O=c1[nH]nc2ccc(-c3ccc(Oc4ccc(F)cc4)cc3)cn12 .
6.58

I would be grateful if you could share the reported half-life for Cc1cnc(Cn2nc3ccc(-c4ccc(OC(F)(F)F)cc4)cn3c2=O)o1 .
4.8

---

Listing: pIC50 of selected molecules
target: Voltage-gated inwardly rectifying potassium channel KCNH2 (Homo sapiens, UniProt Q12809); assay: Inhibition of human ERG
pIC50: −log10 of the molar value.

I would be grateful if you could share the reported pIC50 for FC(F)(F)Oc1ccc(-c2ccc3nnc(C(F)(F)F)n3c2)cc1 .
< 5.00

I would be grateful if you could share the reported pIC50 for Cc1noc(Cn2nc3ccc(-c4ccc(OC(F)(F)F)cc4)cn3c2=O)n1 .
< 5.00

---

molecular target: Sodium channel protein type 1 subunit alpha (Homo sapiens); experiment: Inhibition of 10 Hz stimulated Nav1.1 (unknown origin) assessed as inhibition of peak sodium current at 10 uM by automated patch clamp method relative to control
Assign class by inhibition: not lower than 40% means label 1; lower than 40% means label 0.

Could you tell me if the measured inhibition of Cc1noc(Cn2nc3ccc(-c4ccc(Oc5ccc(Cl)cc5)cc4)cn3c2=O)n1 reaches 40% or more?
label 1

---

biological target: Sodium channel protein type 5 subunit alpha (Homo sapiens); experiment: Inhibition of 1 Hz stimulated Nav1.5 (unknown origin) assessed as inhibition of peak sodium current by manual patch clamp method
OUTCOME MEASURE: IC50

I would be grateful if you could share the reported IC50 for Cc1noc(Cn2nc3ccc(-c4ccc(OC(F)(F)F)cc4)cn3c2=O)n1 .
> 10 µM

---

assay: Half life in rat microsomes; format: ADME, Microsome
OUTCOME MEASURE: half-life (h)
Number in h, nothing else.

* Cc1cnc(Cn2nc3ccc(-c4ccc(OC(F)(F)F)cc4)cn3c2=O)o1 | 0.4
* O=c1[nH]nc2ccc(-c3ccc(OC(F)(F)F)cc3)cn12 | 1.48

Then there is this molecule:
I would be grateful if you could share the reported half-life for Cc1nc(Cn2nc3ccc(-c4ccc(Oc5ccc(F)cc5)cc4)cn3c2=O)no1 .
2.42

---

assay: Volume of distribution in cynomolgus monkey; assay type: ADME, organism-based, Macaca fascicularis; details: in vivo
OUTCOME MEASURE: Vd (L/kg)
Number in L/kg, nothing else.

I would be grateful if you could share the reported Vd for Cc1noc(Cn2nc3ccc(-c4ccc(OC(F)(F)F)cc4)cn3c2=O)n1 .
2.29

---

test: Clearance in rabbit; format: ADME, organism-based, Oryctolagus cuniculus; details: in vivo
OUTCOME MEASURE: clearance (mL/min/kg)
Number in mL/min/kg, nothing else.

I would be grateful if you could share the reported clearance for Cc1noc(Cn2nc3ccc(-c4ccc(OC(F)(F)F)cc4)cn3c2=O)n1 .
7.03

---

Listing: inhibition at 320 s, 1 µM of selected molecules
target: Nav1.5 (peak sodium current, use-dependent block) (Homo sapiens, UniProt Q14524); test: Inhibition of 3 Hz stimulated human Nav1.5alpha expressed in HEK293 cells assessed as use dependent block of peak sodium current at 1 uM with 3 compound additions at 60 sec intervals at holding potential -100 mV incubated for 320 sec after third compound addition followed by second period of 3 Hz stimulation by PatchXpress method relative to control; type: cell-based; settings: HEK293 cells expressing human Nav1.5alpha
Sequence (Q14524 whole entry): as above
Number in %, nothing else.

* O=c1[nH]nc2ccc(-c3ccc(Oc4ccc(F)cc4)cc3)cn12 | 28
* O=c1n(Cc2nnc(C3CC3)o2)nc2ccc(-c3ccc(Oc4ccc(F)cc4)cc3)cn12 | 69
* Cc1nc(Cn2nc3ccc(-c4ccc(Oc5ccc(Cl)cc5)cc4)cn3c2=O)no1 | 40
* Cc1noc(Cn2nc3ccc(-c4ccc(Oc5ccc(Cl)cc5)cc4)cn3c2=O)n1 | 47

Nav1.5 (peak sodium current, use-dependent block) (Homo sapiens, UniProt Q14524) / inhibition at 320 s, 1 µM / Cc1nc(Cn2nc3ccc(-c4ccc(Oc5ccc(F)cc5)cc4)cn3c2=O)no1 : value?
46

---

assay: Half life in rat microsomes; type: ADME, Microsome
Listing: half-life of selected compounds
Provide a numeric answer, followed by its unit.

Use the examples below as a reference point.
- Cc1noc(Cn2nc3ccc(-c4ccc(Oc5ccc(F)cc5)cc4)cn3c2=O)n1: 85 min
- Cc1coc(Cn2nc3ccc(-c4ccc(OC(F)(F)F)cc4)cn3c2=O)n1: 41 min
- Cc1noc(Cn2nc3ccc(-c4ccc(OC(F)(F)F)cc4)cn3c2=O)n1: 198 min
- O=c1n(Cc2nc(C3CC3)co2)nc2ccc(-c3ccc(OC(F)(F)F)cc3)cn12: 39 min
- O=c1[nH]nc2ccc(-c3ccc(Oc4ccc(F)cc4)cc3)cn12: 43 min

I would be grateful if you could share the reported half-life for Cc1noc(Cn2nc3ccc(-c4ccc(Oc5ccc(Cl)cc5)cc4)cn3c2=O)n1 .
34 min

I would be grateful if you could share the reported half-life for O=c1n(Cc2nnc(C3CC3)o2)nc2ccc(-c3ccc(Oc4ccc(F)cc4)cc3)cn12 .
395 min

I would be grateful if you could share the reported half-life for Cc1nc(Cn2nc3ccc(-c4ccc(Oc5ccc(Cl)cc5)cc4)cn3c2=O)no1 .
390 min

I would be grateful if you could share the reported half-life for O=c1n(Cc2noc(CO)n2)nc2ccc(-c3ccc(Oc4ccc(F)cc4)cc3)cn12 .
32 min

I would be grateful if you could share the reported half-life for Cc1nc(Cn2nc3ccc(-c4ccc(OC(F)(F)F)cc4)cn3c2=O)no1 .
363 min

---

Listing: pIC50 of selected molecules
target: Sodium channel protein type 2 subunit alpha (Homo sapiens, UniProt Q99250); assay: Inhibition of 1 Hz stimulated Nav1.2 (unknown origin) by manual patch clamp method
Sequence (Q99250 whole entry): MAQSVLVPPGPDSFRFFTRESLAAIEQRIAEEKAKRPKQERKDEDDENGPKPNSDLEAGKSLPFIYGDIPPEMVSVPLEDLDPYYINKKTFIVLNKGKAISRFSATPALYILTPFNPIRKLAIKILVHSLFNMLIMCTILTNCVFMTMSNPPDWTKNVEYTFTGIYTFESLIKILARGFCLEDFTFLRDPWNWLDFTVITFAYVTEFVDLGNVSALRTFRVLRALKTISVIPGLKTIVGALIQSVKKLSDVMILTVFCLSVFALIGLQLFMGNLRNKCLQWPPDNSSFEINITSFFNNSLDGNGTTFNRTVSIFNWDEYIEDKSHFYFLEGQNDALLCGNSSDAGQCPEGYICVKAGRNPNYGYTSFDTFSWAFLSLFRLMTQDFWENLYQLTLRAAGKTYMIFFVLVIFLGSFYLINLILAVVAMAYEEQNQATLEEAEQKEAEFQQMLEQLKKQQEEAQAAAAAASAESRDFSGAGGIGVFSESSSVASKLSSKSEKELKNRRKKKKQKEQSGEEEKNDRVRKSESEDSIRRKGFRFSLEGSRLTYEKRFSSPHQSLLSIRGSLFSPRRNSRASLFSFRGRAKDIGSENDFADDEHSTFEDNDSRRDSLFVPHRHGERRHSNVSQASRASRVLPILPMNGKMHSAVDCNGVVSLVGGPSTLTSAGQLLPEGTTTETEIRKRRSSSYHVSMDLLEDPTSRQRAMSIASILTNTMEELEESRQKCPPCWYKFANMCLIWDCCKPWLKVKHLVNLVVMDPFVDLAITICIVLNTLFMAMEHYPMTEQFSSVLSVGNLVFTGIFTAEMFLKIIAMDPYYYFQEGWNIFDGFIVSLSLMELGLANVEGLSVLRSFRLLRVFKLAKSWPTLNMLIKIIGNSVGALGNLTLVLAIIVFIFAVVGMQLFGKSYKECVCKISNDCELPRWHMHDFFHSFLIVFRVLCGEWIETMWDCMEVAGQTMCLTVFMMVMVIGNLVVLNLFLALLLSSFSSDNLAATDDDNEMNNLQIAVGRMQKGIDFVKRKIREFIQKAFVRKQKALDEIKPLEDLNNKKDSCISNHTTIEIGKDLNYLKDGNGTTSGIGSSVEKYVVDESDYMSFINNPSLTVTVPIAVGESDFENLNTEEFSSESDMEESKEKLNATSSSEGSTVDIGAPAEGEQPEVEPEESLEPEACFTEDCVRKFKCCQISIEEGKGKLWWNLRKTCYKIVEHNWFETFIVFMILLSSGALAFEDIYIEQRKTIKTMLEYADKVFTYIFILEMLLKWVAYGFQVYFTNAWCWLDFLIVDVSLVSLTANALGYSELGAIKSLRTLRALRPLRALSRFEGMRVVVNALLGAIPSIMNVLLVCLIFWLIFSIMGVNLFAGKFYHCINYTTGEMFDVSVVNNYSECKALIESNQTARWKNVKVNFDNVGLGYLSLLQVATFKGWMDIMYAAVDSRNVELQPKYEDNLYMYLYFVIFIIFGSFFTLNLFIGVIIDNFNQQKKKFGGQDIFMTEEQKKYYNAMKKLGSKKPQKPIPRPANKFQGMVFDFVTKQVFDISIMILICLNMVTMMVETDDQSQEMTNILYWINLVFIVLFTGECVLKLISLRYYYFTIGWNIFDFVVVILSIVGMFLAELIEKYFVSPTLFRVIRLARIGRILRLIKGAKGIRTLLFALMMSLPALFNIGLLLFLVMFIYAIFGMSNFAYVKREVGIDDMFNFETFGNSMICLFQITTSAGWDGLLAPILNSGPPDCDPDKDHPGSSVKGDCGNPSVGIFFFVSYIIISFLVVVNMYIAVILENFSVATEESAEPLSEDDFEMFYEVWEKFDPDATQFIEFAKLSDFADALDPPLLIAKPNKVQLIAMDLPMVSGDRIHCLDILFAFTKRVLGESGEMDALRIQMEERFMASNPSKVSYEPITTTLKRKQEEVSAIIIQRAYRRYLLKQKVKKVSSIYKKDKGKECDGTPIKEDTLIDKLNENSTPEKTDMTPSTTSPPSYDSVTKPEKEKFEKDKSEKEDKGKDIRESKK
To interpret pIC50, take it as minus log10 of a concentration measured in moles per litre.

- Cc1noc(Cn2nc3ccc(-c4ccc(OC(F)(F)F)cc4)cn3c2=O)n1: 5.38

I would be grateful if you could share the reported pIC50 for FC(F)(F)Oc1ccc(-c2ccc3nnc(C(F)(F)F)n3c2)cc1 .
6.40
